# test_system: HIV-1 JR-CSF Env I326A (HIV-1 isolate JR-CSF) (UniProt P20871)
# measurement_notes: cell-based or functional assay
metric_name: Fold IC50 increase relative to wild-type (fold)
Your answer should be a plain number; it is taken to be in fold.

Query string: Which measured Fold IC50 increase relative to wild-type value corresponds to PGT-135 (antibody, V domains shown) VH: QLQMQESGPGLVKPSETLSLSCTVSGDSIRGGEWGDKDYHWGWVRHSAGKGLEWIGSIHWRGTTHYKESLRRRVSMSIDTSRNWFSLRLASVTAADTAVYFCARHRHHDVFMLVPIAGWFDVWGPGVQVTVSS VL: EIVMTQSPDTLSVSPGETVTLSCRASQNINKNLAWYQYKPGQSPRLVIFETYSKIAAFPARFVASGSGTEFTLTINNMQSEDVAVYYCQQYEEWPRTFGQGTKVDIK ?
Result string: 1.2

Query string: Requested read-out: Fold IC50 increase relative to wild-type. Entry: PGT-128 (antibody, V domains shown) VH: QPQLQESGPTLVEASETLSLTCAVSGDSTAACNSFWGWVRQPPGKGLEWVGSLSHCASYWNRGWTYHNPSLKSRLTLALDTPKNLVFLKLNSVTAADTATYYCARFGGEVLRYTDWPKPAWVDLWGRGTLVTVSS VL: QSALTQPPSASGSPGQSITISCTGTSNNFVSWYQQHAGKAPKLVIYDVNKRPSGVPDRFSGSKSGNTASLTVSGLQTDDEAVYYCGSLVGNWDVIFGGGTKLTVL
Result string: 1.6

Query string: Report Fold IC50 increase relative to wild-type for PGT-123 (antibody, V domains shown) VH: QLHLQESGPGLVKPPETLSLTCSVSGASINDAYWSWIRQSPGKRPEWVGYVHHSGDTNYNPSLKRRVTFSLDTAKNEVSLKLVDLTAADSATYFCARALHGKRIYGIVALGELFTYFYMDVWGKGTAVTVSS VL: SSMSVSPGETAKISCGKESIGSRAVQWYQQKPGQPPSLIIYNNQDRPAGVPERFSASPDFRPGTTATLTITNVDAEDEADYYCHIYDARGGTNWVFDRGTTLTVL please.
Result string: 0.4

Query string: Fold IC50 increase relative to wild-type for PGT-126 (antibody, V domains shown) VH: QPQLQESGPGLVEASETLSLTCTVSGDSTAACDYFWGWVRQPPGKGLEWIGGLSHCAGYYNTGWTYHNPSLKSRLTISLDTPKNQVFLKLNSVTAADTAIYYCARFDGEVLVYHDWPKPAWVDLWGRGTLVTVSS VL: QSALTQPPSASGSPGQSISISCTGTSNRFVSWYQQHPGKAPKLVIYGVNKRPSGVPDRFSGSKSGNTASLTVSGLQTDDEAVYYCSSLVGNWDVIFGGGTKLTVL ?
Result string: 0.8

Query string: Name the reported Fold IC50 increase relative to wild-type value associated with the binder PGT-127 (antibody, V domains shown) VH: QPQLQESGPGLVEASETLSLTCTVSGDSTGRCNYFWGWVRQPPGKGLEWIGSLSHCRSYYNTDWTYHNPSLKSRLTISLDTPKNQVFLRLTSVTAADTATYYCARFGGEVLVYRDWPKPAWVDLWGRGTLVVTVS VL: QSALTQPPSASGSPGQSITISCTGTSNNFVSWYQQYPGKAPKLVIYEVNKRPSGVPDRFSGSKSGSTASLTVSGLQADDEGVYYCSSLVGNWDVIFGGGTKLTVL
Result string: 3.5
